Reported values of z-score for individual entries
Assay: P. aeruginosa biofilm formation inhibitors, primary screen, PAO1 strain, BacTiter-Glo luminescence, LB-PBS (AID 1144)
Settings: 12 h, higher = more signal
Could you keep your reply to the number by itself?

O=C1C[C@]2(c3ccc([N+](=O)[O-])cc3)C(=O)N(CC(F)(F)F)c3cc(CO)ccc3[C@H]2N1C1CCCCC1 | 1.43
O=C1c2ccccc2[C@](Cc2ccccc2I)(C(=O)NCCN2CCOCC2)[C@H](c2ccc(CO)cc2)N1C1CCCCC1 | 0.155

### Prompt Look up z-score: COCCCNC(=O)[C@@H]1c2ccccc2C(=O)N(Cc2ccccc2Cl)[C@H]1c1ccc(CO)cc1
### Response 0.66

### Prompt # iterate: CCC[C@@H]1C[C@@]1(CCC)[C@@H](NS(=O)(=O)c1cccc2cccnc12)c1ccc(Cl)cc1
### Response -0.0939
